Target: T1, PACE4, P29122
T1 chain: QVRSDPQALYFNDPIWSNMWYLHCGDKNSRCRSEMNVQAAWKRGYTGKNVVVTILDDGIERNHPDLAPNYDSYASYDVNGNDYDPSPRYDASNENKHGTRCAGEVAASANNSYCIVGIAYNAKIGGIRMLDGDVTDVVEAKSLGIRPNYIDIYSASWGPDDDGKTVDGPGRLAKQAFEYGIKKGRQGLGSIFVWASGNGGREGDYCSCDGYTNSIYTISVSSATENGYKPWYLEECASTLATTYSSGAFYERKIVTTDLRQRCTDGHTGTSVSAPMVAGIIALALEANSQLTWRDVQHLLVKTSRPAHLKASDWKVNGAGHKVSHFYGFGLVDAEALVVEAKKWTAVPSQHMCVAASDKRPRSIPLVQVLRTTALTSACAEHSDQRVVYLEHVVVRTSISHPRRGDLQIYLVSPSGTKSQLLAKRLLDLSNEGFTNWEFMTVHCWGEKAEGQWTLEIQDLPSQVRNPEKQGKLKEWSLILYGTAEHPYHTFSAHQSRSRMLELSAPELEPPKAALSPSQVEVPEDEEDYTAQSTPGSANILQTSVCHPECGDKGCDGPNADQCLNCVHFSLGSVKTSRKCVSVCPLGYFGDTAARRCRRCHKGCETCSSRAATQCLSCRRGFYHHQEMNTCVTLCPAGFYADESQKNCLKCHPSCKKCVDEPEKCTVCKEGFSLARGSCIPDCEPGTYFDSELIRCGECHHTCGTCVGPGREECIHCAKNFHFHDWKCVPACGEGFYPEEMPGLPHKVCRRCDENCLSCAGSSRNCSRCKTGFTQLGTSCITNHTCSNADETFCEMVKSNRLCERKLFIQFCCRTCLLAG
Details: modification not given
pKi: −log10 of the molar value.

binder	pKi
RRRRR [Penta-L-arginine]	6.01
